Target: T1, rat PAI-1 (rat, UniProt P20961 24-402)
T1 sequence: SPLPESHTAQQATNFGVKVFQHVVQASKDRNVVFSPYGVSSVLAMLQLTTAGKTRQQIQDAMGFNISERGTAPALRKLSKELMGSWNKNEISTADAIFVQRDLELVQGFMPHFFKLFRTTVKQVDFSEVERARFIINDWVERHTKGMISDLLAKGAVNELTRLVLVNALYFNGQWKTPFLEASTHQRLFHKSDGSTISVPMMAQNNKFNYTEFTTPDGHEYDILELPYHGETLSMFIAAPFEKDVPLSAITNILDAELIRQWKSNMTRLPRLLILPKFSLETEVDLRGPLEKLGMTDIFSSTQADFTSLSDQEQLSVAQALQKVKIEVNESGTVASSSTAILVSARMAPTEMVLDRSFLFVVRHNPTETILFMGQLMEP
Experiment: cell-based or functional assay
endpoint_label: IC50 chromogenic (nM)
Express the result in nM but write the number alone.

Task: Entry Antibody 26, scFv (scFv, V domains shown) VH: QVQLQQSGAEVKKPGTSVKVSCKASGGTFSSYAISWVRQAPGQGLEWMGGIIPIFGTANYAQKFQGRVTITADESTSTAYMELSSLRSEDTAVYYCAREKRQWLEGHFDYWGRGTPVTVSS VL: DIQMTQSPSFLSASIGDRVTITCRASEGIYHTLAWYQQKPGKAPKLLIYRASSLASGAPSRFSGSGSGTDFTLTISSLQPDDFATYYCQQYSNYPLTFGGGTKLEIK : reported IC50 chromogenic = ?
Result: 245

Task: Proceed to Antibody 03, scFv (scFv, V domains shown) VH: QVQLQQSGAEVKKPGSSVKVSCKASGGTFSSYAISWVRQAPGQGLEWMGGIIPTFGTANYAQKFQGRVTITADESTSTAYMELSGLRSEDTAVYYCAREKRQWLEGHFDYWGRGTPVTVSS VL: DIQMTQSPSFLSASIGDRVTITCRASEGIYRSLAWYQQKPGKAPKLLIYKASSLASGAPSRFSGSGSGTDFTLTISGLQPDDFATYYCQQYSNYPLTFGGGTKLEIK
Result: 297

Task: Antibody 15, scFv (scFv, V domains shown) VH: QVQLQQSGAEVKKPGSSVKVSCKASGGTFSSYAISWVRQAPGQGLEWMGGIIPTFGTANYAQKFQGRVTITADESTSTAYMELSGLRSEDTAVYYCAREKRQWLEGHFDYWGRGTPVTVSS VL: DIQMAQSPSFLSASIGDRVTITCRASEGIYHNLAWYQQKPGKAPKLLIYRASSLASGAPSRFSGSGSGTDFTLTISSLQPDDFATYYCQQYSNYPLTFGGGTKLEIR ?
Result: 64.2
